# Test system: MYLK2
# reported-conditions: concentration: 1 μM, replicates: in singlicate; n = 1;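 further: KINOMEscan kinase panel screen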
Hi there, I'd appreciate the recorded %Inh for every entry that follows.
Use % as the unit, but write only the number.

Entry under test: COc1cccc(C2=C(Nc3ccc(Cl)c(C(=O)O)c3)C(=O)NC2=O)c1 [SB-390769] . Its %Inh was 21

Entry under test: COc1ccc(Nc2nccc(NCCNC(=O)c3cc4ccccc4s3)n2)cc1 [GSK1379896] . Its %Inh was 0

Entry under test: `Cc1cccc(NC(=O)Nc2ccc(Oc3ncnc4ccn(C)c34)cc2)c1` . Its %Inh was 0

Entry under test: Cl.Cl.NCC(NCc1ccc(-c2ccnc3[nH]ccc23)s1)c1ccccc1 (stereo not drawn) [GSK1321565] . Its %Inh was 5

Entry under test: c1ccc(Oc2ccc(Nc3ccnc4cc(-c5ccc(CNCCN6CCOCC6)o5)ccc34)cc2)nc1 [GW567145] . Its %Inh was 0

Entry under test: CC(C)c1nc(-c2cccc(NS(=O)(=O)c3c(F)cccc3F)c2F)c(-c2ccnc(Nc3ccc(N4CCOCC4)nc3)n2)s1 [GSK2008607] . Its %Inh was 0

Entry under test: Fc1ccc(-c2ncn(C3CCNCC3)c2-c2ccnc(Oc3ccc(-c4ccccc4)cc3)n2)cc1 [SB-245391] . Its %Inh was 0

Entry under test: Clc1ccc(-c2nn3ncccc3c2-c2ccnc(Nc3ccc4c(c3)OCCO4)n2)cc1 [GW829116] . Its %Inh was 0

Entry under test: CCS(=O)(=O)c1ccc(OC)c(Nc2nccc(-c3c(-c4cccc(NC(=O)c5c(F)cccc5F)c4)nn4ncccc34)n2)c1 [GSK326180] . Its %Inh was 9

Entry under test: O=C(Nc1cccc(-c2nn3ccccc3c2-c2ccnc(Nc3cccc(C(F)(F)F)c3)n2)c1)c1c(F)cccc1F [GSK292658] . Its %Inh was 0

Entry under test: Cl.c1ccc(-c2ccc3c(Nc4ccc5[nH]ncc5c4)ccnc3c2)nc1 [GW440137] . Its %Inh was 5

Entry under test: COc1cccc(-c2ccc3c(NC(=O)C4CC4)n[nH]c3n2)c1 [SB-710903] . Its %Inh was 78

Entry under test: COc1cc(Nc2ncc3c(C)nc(-c4cc5ccccc5[nH]4)n3n2)cc(OC)c1OC [GW869516] . Its %Inh was 0

Entry under test: CN1CCN(Cc2cccc(-c3ccc4c(Nc5ccc(Oc6ccccc6)cc5)ccnc4c3)c2)CC1 [GW578342] . Its %Inh was 0

Entry under test: COc1ccc(CNC(=O)NC2CCN(c3ccnc(Nc4ccc(F)cc4)n3)CC2)cc1 [GSK1379788] . Its %Inh was 0

---

Hi there, I'd appreciate the recorded %Inh for every entry that follows.
# Tested on: CSNK1D
# reported-conditions: concentration: 1 μM, replicates: in singlicate; n = 1
Use % as the unit, but write only the number.

Entry under test: `CC(C)(C)c1ccc2nccc(Nc3cccc(O)c3)c2c1` . Its %Inh was 0

Entry under test: `COC(=O)Nc1nc2cc(Oc3ccc(NC(=O)Nc4cc(C(F)(F)F)ccc4F)cn3)ccc2[nH]1.Cl.Cl` . Its %Inh was 6

Entry under test: `O=C(Nc1cccc(-c2nn3ccccc3c2-c2ccnc(Nc3cccc(C(F)(F)F)c3)n2)c1)c1c(F)cccc1F` . Its %Inh was 2

Entry under test: `COc1cccc(C(=O)Nc2cccc(Oc3ccc4nc(NC(=O)C5CC5)cn4n3)c2)c1` . Its %Inh was 1

Entry under test: `c1ccc(-c2n[nH]cc2Nc2ccnc3ccccc23)nc1` . Its %Inh was 55

Entry under test: COc1cc(Nc2nccc(N3CCC(NC(=O)c4cc5ccccc5s4)C3)n2)cc(OC)c1OC (centres unmarked) . Its %Inh was 10

Entry under test: `CC(=O)Nc1nc2cnc(Nc3cc(NC(=O)c4cccc(C5(C#N)CC5)c4Cl)ccc3C)nc2s1` . Its %Inh was 0

Entry under test: `Cn1cc(-c2ccc3c(c2)CCN3C(=O)Cc2cccc(F)c2)c2c(N)ncnc21` . Its %Inh was 20

---

# Tested on: YES
# Construct: gene YES1
# reported-conditions: concentration: 1 μM, replicates: in singlicate; n = 1
Hi there, I'd appreciate the recorded %Inh for every entry that follows.
Use % as the unit, but write only the number.

Item `Nc1n[nH]c2cnc(-c3ccccc3)cc12` was tested on YES; the reported %Inh is 24

Item `COC(=O)Nc1nc2cc(Oc3ccc(NC(=O)Nc4cc(C(F)(F)F)ccc4F)cn3)ccc2[nH]1.Cl.Cl` was tested on YES; the reported %Inh is 24

Item `COc1cc(Nc2nccc(-c3c(-c4cccc(NC(=O)c5c(F)cccc5F)c4)nn4ncccc34)n2)cc(OC)c1OC` was tested on YES; the reported %Inh is 100

Item `O=C(O)C(F)(F)F.O=C(O)C(F)(F)F.O=c1[nH]ccc2nc(N[C@@H]3CCCNC3)nc(Nc3ccc(S(=O)(=O)N4CCOCC4)cc3)c12` was tested on YES; the reported %Inh is 75

Item `CC(C)c1nc(-c2cccc(NS(=O)(=O)c3c(F)cccc3F)c2F)c(-c2ccnc(Nc3ccc(N4CCOCC4)nc3)n2)s1` was tested on YES; the reported %Inh is 99.6

Item `O=C(Nc1cccc(-c2nn3ccccc3c2-c2ccnc(Nc3cccc(F)c3)n2)c1)c1c(F)ccc(F)c1Cl` was tested on YES; the reported %Inh is 98.7

Item `CCCCc1nn2ncccc2c1-c1ccnc(Nc2ccc(N3CCN(C)CC3)cc2)n1` was tested on YES; the reported %Inh is 81

---

# Tested on: NEK3
# reported-conditions: concentration: 1 μM, replicates: in singlicate; n = 1
Note to self: use label 1 only for %Inh readings below 10%; a reading exactly at 10% still gets label 0.

Q) # strict comparison: is reported %Inh < 10%? input = `Cn1cc(-c2ccc3c(c2)CCN3C(=O)Cc2cccc(Cl)c2)c2c(N)ncnc21`
A) label 1

Q) # strict comparison: is reported %Inh < 10%? input = COc1cccc(NC(=O)NC2CCN(c3ccnc(Nc4cc(OC)c(OC)c(OC)c4)n3)C2)c1 (centres unmarked)
A) label 0

Q) # strict comparison: is reported %Inh < 10%? input = `CC(=O)N1CCN(c2ccc(Nc3nccc(-c4sc(C(C)C)nc4-c4cccc(NS(=O)(=O)c5cccc(Cl)c5)c4)n3)cn2)CC1`
A) label 1

Q) # strict comparison: is reported %Inh < 10%? input = `Clc1ccc(-c2nn3ncccc3c2-c2ccnc(Nc3ccc4c(c3)OCCO4)n2)cc1`
A) label 0

Q) # strict comparison: is reported %Inh < 10%? input = `O=C(Nc1n[nH]c2nc(-c3ccc(O)cc3)ccc12)C1CC1`
A) label 0

Q) # strict comparison: is reported %Inh < 10%? input = `COc1cccc(-c2ccc3c(NC(=O)C4CC4)n[nH]c3n2)c1`
A) label 0

Q) # strict comparison: is reported %Inh < 10%? input = `Cc1ccc(C(=O)N2CC[C@@H](O)C2)cc1-n1c(C)cc(OCc2ccc(F)cc2F)c(Br)c1=O`
A) label 0

Q) # strict comparison: is reported %Inh < 10%? input = `Cc1ccc(S(=O)(=O)Nc2ccc(Nc3nccc(Nc4cccc5[nH]ncc45)n3)cc2)cc1`
A) label 1

Q) # strict comparison: is reported %Inh < 10%? input = `C[C@@H](Oc1cc(-n2cnc3cc(-c4ccnc(NCCS(C)(=O)=O)c4)ccc32)sc1C(N)=O)c1ccccc1Cl`
A) label 1

Q) # strict comparison: is reported %Inh < 10%? input = `Cn1cc(-c2ccc3c(c2)CCN3C(=O)Cc2cccc(F)c2)c2c(N)ncnc21`
A) label 0

Q) # strict comparison: is reported %Inh < 10%? input = `COc1cccc(C(=O)Nc2cccc(Oc3ccc4nc(NC(=O)C5CC5)cn4n3)c2)c1`
A) label 0

Q) # strict comparison: is reported %Inh < 10%? input = `Nc1n[nH]c2cnc(-c3ccccc3)cc12`
A) label 0

Q) # strict comparison: is reported %Inh < 10%? input = `COC(=O)Nc1nc2ccc(Oc3ccc(NC(=O)Nc4cc(C(F)(F)F)ccc4F)cc3)cc2n1C.Cl`
A) label 1

Q) # strict comparison: is reported %Inh < 10%? input = Cl.Cl.NCC(NC(=O)c1cc(-c2ccccc2)c(-c2ccnc3[nH]ccc23)s1)c1ccccc1 (centres unmarked)
A) label 1

Q) # strict comparison: is reported %Inh < 10%? input = `COCCOCCOc1cc2ncc3c4ccc(C#N)cc4[nH]c3c2cc1OC`
A) label 0

Q) # strict comparison: is reported %Inh < 10%? input = `COc1cc2c(cc1OCCN1CCNCC1)ncc1c3ccc(C#N)cc3[nH]c21`
A) label 0

Q) # strict comparison: is reported %Inh < 10%? input = `C[C@@H]1CC[C@@H](C(=O)Nc2ccccc2)CN1c1cc(-c2ccc3c(N)n[nH]c3c2)nc(N)n1`
A) label 1

Q) # strict comparison: is reported %Inh < 10%? input = `c1ccc(-c2cnc3nccnn23)cc1`
A) label 1

Q) # strict comparison: is reported %Inh < 10%? input = `O=C(Nc1cccc(-c2nn3ncccc3c2-c2ccnc(Nc3ccccc3)n2)c1)c1c(F)cccc1F`
A) label 0

Q) # strict comparison: is reported %Inh < 10%? input = `COc1cc(Nc2ncc3c(C)nc(-c4cc5ccccc5[nH]4)n3n2)cc(OC)c1OC`
A) label 0

Q) # strict comparison: is reported %Inh < 10%? input = NCCCC(NC(=O)c1cc(Br)c(-c2ccnc3[nH]ccc23)s1)c1ccccc1.O=C(O)C(F)(F)F.O=C(O)C(F)(F)F (centres unmarked)
A) label 1

Q) # strict comparison: is reported %Inh < 10%? input = `COC(=O)Nc1nc2cc(Oc3ccc(NC(=O)Nc4cc(C(F)(F)F)ccc4F)cn3)ccc2[nH]1.Cl.Cl`
A) label 1

Q) # strict comparison: is reported %Inh < 10%? input = `CC(C)c1nc(-c2cccc(NS(=O)(=O)c3c(F)cccc3F)c2F)c(-c2ccnc(Nc3ccc(N4CCOCC4)nc3)n2)s1`
A) label 1

Q) # strict comparison: is reported %Inh < 10%? input = `CC(=O)Nc1nc2cnc(Nc3cc(NC(=O)c4cccc(C5(C#N)CC5)c4Cl)ccc3C)nc2s1`
A) label 0

Q) # strict comparison: is reported %Inh < 10%? input = `O=c1[nH]cc(-c2ccc(N3CCOCC3)cc2)c2sc(-c3cn[nH]c3)cc12`
A) label 0

Q) # strict comparison: is reported %Inh < 10%? input = `CSc1cccc2c(-c3ccncn3)c(-c3ccc(F)cc3)nn12`
A) label 1

Q) # strict comparison: is reported %Inh < 10%? input = `CN1CCN(Cc2cccc(-c3ccc4c(Nc5ccc(Oc6ccccc6)cc5)ccnc4c3)c2)CC1`
A) label 1

Q) # strict comparison: is reported %Inh < 10%? input = `Cl.c1ccc(-c2ccc3c(Nc4ccc5[nH]ncc5c4)ccnc3c2)nc1`
A) label 0

Q) # strict comparison: is reported %Inh < 10%? input = COc1cc(Nc2nccc(N3CCC(NC(=O)c4cc5ccccc5s4)C3)n2)cc(OC)c1OC (centres unmarked)
A) label 0

Q) # strict comparison: is reported %Inh < 10%? input = `O=C(O)C(F)(F)F.O=C(O)C(F)(F)F.O=c1[nH]ccc2nc(N[C@@H]3CCCNC3)nc(Nc3ccc(S(=O)(=O)N4CCOCC4)cc3)c12`
A) label 0

Q) # strict comparison: is reported %Inh < 10%? input = `CCS(=O)(=O)c1ccc(OC)c(Nc2nccc(-c3c(-c4cccc(NC(=O)c5c(F)cccc5F)c4)nn4ncccc34)n2)c1`
A) label 0

Q) # strict comparison: is reported %Inh < 10%? input = `CN(c1ccc(NC(=O)Nc2cc(C(F)(F)F)ccc2F)cc1)c1ccnc(Nc2ccc(S(N)(=O)=O)cc2)n1`
A) label 0
